- Tested on: YT (IL-2 2.5 ng/mL)
- ASSAY OVERVIEW: percent inhibition of viability; higher = more inhibition;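 note: normalised to DMSO-only wells as negative and benzethonium chloride as positive control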
- CONDITION PARAMETERS: 72 h; 10000 nM
MEASUREMENT LABEL: percent inhibition of viability (%)
Form entry: value (%) — number only.

Just so you know, measured percent inhibition of viability for Cc1sc2c(c1C)C(c1ccc(Cl)cc1)=N[C@@H](CC(=O)Nc1ccc(O)cc1)c1nnc(C)n1-2 [OTX015] (max concentration tested 10000 nM) came out at 56.8

Just so you know, measured percent inhibition of viability for OC[C@H]1O[C@@H](n2cnc3c2N=CNC[C@H]3O)C[C@@H]1O [Pentostatin] (max concentration tested 10000 nM) came out at 8.72

Just so you know, measured percent inhibition of viability for O=c1[nH]c(=O)n([C@H]2C[C@H](O)[C@@H](CO)O2)cc1F [Floxuridine] (max concentration tested 10000 nM) came out at 57.9

Just so you know, measured percent inhibition of viability for CCc1nc(-c2cccc(C)c2)c(-c2ccnc(NC(=O)c3ccccc3)c2)s1 [TAK-715] (max concentration tested 10000 nM) came out at 48.7

Just so you know, measured percent inhibition of viability for Cc1cc(Nc2cc(CN3CCOCC3)c3nc(C)c(Cc4ccc(Cl)cc4F)n3n2)n[nH]1 [Gandotinib] (max concentration tested 10000 nM) came out at 94.8

Just so you know, measured percent inhibition of viability for CN(C)c1nc(N(C)C)nc(N(C)C)n1 [Altretamine] (max concentration tested 10000 nM) came out at -8.31

====

- System: KHYG-1 (IL-2 2.5 ng/mL)
- ASSAY OVERVIEW: percent inhibition of viability; higher = more inhibition
- CONDITION PARAMETERS: 72 h; 10000 nM
What percent inhibition of viability was measured for each of the following?

Just so you know, measured percent inhibition of viability for C=CC(=O)Nc1cc2c(Nc3ccc(F)c(Cl)c3)ncnc2cc1OCCCN1CCOCC1 [Canertinib] (max concentration tested 10000 nM) came out at 105%

Just so you know, measured percent inhibition of viability for O=c1cc(N2CCOCC2)oc2c(-c3ccccc3)cccc12 (max concentration tested 100000 nM) came out at 30.1%

Just so you know, measured percent inhibition of viability for CNC(=O)c1ccc(N2C(=S)N(c3ccc(C#N)c(C(F)(F)F)c3)C(=O)C2(C)C)cc1F [Enzalutamide] (max concentration tested 10000 nM) came out at 4.84%

Just so you know, measured percent inhibition of viability for O=C1NC(=O)/C(=C/c2ccc3nccc(-c4ccncc4)c3c2)S1 (max concentration tested 10000 nM) came out at 78.5%

Just so you know, measured percent inhibition of viability for COc1cc(Nc2ncc(F)c(Nc3ccc4c(n3)NC(=O)C(C)(C)O4)n2)cc(OC)c1OC [Tamatinib] (max concentration tested 10000 nM) came out at 99.6%

Just so you know, measured percent inhibition of viability for Cn1cc(C2=Nc3cc(NC(=O)C(N)C4CCCCC4)cc4c3C2=CNNC4=O)cn1 (stereo not drawn) (max concentration tested 10000 nM) came out at 107%

Just so you know, measured percent inhibition of viability for COc1cc2c(NC3CCN(C(C)C)CC3)nc(C3CCCCC3)nc2cc1OCCCN1CCCC1 [UNC0638] (max concentration tested 10000 nM) came out at 102%

Just so you know, measured percent inhibition of viability for C[C@@H]1C[C@H]2O[C@@H]2/C=C\C=C\C(=O)Cc2c(Cl)c(O)cc(O)c2C(=O)O1 [Radicicol] (max concentration tested 10000 nM) came out at 110%

Just so you know, measured percent inhibition of viability for Cc1cc(Nc2cc(CN3CCOCC3)c3nc(C)c(Cc4ccc(Cl)cc4F)n3n2)n[nH]1 [Gandotinib] (max concentration tested 10000 nM) came out at 95.9%

Just so you know, measured percent inhibition of viability for CC(C)Oc1ccc(C(=O)N[C@H](CNC(=O)CN(C)C)Cc2ccc(-c3cn4cccc([C@H](C)O)c4n3)cc2)cc1Cl (max concentration tested 10000 nM) came out at 106%

Just so you know, measured percent inhibition of viability for CC(C)C[C@@H](C(=O)N[C@H](C(=O)OC1CCCC1)c1ccccc1)[C@H](O)C(=O)NO [Tosedostat] (max concentration tested 10000 nM) came out at 56%

Just so you know, measured percent inhibition of viability for Cn1cnc2c(F)c(Nc3ccc(Br)cc3Cl)c(C(=O)NOCCO)cc21 [Selumetinib] (max concentration tested 10000 nM) came out at 61.1%

Just so you know, measured percent inhibition of viability for C#Cc1cccc(Nc2ncnc3cc4c(cc23)OCCOCCOCCO4)c1 [Icotinib] (max concentration tested 10000 nM) came out at 20.9%
